B1: IKZF1 (parent)
chain: HIKLHSGEKPFKCHLCNYACRRRD

variants of: B1; assay: protein stability index of a GFP-peptide fusion (GPS, HEK-293T) (PSI 1-6); higher = more stable; conditions: c terminus: a fixed tail appended;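 note: lentivirally expressed fusions sorted by FACS into six bins by GFP to DsRed ratio, PSI derived from sequencing read proportions per bin multiplied by bin number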
Measurement Name: protein stability index
Output spec: single numeric token, no unit.

> print(dat)
   variant.id  result.number
1         G7K           2.47

Query block: Suppose we examine the variant R23T ; what protein stability index value has been reported?
Result block: 1.48

Query block: Can you check R21K next?
Result block: 2.19

Query block: Can you check R21D next?
Result block: 1.29

Query block: Can you check E8Q next?
Result block: 1.56

Query block: Can you check R22P next?
Result block: 1.86

Query block: Can you check G7P next?
Result block: 2.19

Query block: Can you check L4E next?
Result block: 3.72

Query block: Can you check R23E next?
Result block: 1.8

Query block: Can you check H5P next?
Result block: 1.94

Query block: Can you check A19W next?
Result block: 2.52

Query block: Can you check F11K next?
Result block: 2.6

Query block: Can you check K3S next?
Result block: 1.91

Query block: Can you check K3P next?
Result block: 3.67

Query block: Can you check H5A next?
Result block: 3.14

Reference source: the supplement of paper PMC10567573
